Reference source: patent US11993574B2

System: IL-17A
Assay: IL-17 release from differentiated primary human T-cells (IL-17A HTRF assay)
Type: cell-based
Conditions: primary human CD4+ T cells differentiated into Th17 cells, 45-hour incubation, IL-17A in supernatant; read-out: hIL17 IC50

{"compoundStructure": "C[C@H]1C(=O)C(C#N)=C[C@@]2(C)c3c(c(-c4ccncn4)nn3-c3ccc(-c4ccccc4)cc3)CC[C@H]12", "testedOn": "IL-17A", "IC50 (nM)": 30}
{"compoundStructure": "C[C@H]1C(=O)C(C#N)=C[C@@]2(C)c3c(c(-c4ccncn4)nn3-c3ccc(-c4ccccc4)nc3)CC[C@H]12", "testedOn": "IL-17A", "IC50 (nM)": 144}
{"compoundStructure": "Cc1ccc(-c2ccc(-n3nc(-c4ccccc4)c4c3[C@]3(C)C=C(C#N)C(=O)[C@H](C)[C@H]3CC4)cc2)cc1", "testedOn": "IL-17A", "IC50 (nM)": 25}
{"compoundStructure": "C[C@H]1C(=O)C(C#N)=C[C@@]2(C)c3nc(C4CCCCC4)n(-c4ccccc4)c3CC[C@H]12", "testedOn": "IL-17A", "IC50 (nM)": 181}
